# TARGET OF ASSAY: ASB7-Elongin B-Elongin C ternary complex (human), Q9H672
# Sequence (Q9H672 11-318, chain 1 of 3): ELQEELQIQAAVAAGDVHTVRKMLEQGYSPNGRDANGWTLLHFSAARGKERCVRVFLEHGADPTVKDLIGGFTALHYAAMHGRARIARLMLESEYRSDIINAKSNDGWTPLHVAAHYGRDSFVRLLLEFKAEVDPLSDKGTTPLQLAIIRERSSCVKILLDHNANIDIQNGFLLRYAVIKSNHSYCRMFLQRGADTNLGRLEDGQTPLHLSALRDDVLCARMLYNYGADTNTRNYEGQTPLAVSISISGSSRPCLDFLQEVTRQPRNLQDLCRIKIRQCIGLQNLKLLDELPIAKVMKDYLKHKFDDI
# Sequence (Q15370 1-104, chain 2 of 3, further chain): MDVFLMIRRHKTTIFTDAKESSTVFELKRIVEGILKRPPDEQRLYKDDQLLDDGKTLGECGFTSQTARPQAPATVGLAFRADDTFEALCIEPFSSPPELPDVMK
# Sequence (Q15369 17-112, chain 3 of 3, further chain): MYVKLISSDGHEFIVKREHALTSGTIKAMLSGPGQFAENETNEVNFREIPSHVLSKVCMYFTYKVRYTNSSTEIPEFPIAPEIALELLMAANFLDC
# RUN DESCRIPTION: ITC; peptide (0.8–4 mM) titrated into the ASB7 complex (39–156 µM); 16 °C; 20 mM Tris-HCl pH 7.5, 150 mM NaCl; MicroCal PEAQ-ITC
READOUT: pKd
# pKd = -log10(concentration in molar units)

# binder ELEKAKQECQDLKGKLEKCCRH (modifications not checked) [CEP152-degron 23-residue peptide] ; its pKd = 5.42
